Target: APE1 (Homo sapiens, UniProt P27695)
Sequence (P27695 whole entry): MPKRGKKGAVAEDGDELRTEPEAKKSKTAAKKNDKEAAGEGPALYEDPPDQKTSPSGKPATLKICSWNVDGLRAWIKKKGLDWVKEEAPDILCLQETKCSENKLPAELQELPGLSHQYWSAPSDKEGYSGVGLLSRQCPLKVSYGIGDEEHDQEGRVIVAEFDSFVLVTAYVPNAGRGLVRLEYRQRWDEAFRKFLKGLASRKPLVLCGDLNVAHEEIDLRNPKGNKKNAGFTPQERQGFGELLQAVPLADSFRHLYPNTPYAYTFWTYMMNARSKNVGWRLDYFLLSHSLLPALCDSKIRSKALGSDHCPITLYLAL
PROPERTY_LABEL: pIC50
Please express pIC50 as -log10 of the molar concentration.

Any idea what pIC50 was measured for `Cc1ccc(S(=O)(=O)n2cccc2[C@@H]2NC(=O)[C@H](Cc3c[nH]c4ccccc34)NC(=O)CCNC(=O)C/C=C/[C@@H]2C)cc1` ?
4.77
